Please respond with reported solubility kinetic for every item in the list.
- protocol_text: Kinetic Solubility
- Type: physicochemical
- setup_conditions: assay media at pH 7 (composition not named), aqueous buffer, kinetic from dmso stock; pH = 7; 0.2 to 100 μM; BD Gentest Solubility Scanner; read-out: Kinetic Solubility at pH = 7
The reply should be a number in µM, with the unit left off.

Challenge: Read the entry Cc1c(C(=O)Nc2ccc(F)c(F)c2)c2n(c1C(=O)C(=O)NC1(c3c[nH]nn3)COC1)CCC2 [Example 36] and write its reported solubility kinetic.
Response given: 59.9

Challenge: State its solubility kinetic: C#CC1(NC(=O)C(=O)c2c(C)c(C(=O)Nc3ccc(F)c(F)c3)c3n2CCC3)CC1 [Example 13]
Response given: 6.4

Challenge: Provide solubility kinetic value for the following compound: Cc1c(C(=O)Nc2ccc(F)c(F)c2)c2n(c1C(=O)C(=O)NC1(c3cnn[nH]3)CC(F)(F)C1)[C@@H]1C[C@@H]1C2 [Example 34]
Response given: 52.3

Challenge: Output measured solubility kinetic for this item: Cc1c(C(=O)Nc2ccc(F)c(F)c2)c2n(c1C(=O)C(=O)NC1(c3cn(C)nn3)CC1)CCC2 [Example 11]
Response given: 56.3
